system: Staphylococcus aureus; test: Antibacterial activity against Staphylococcus aureus KCTC-1916 after 24 hrs by twofold dilution method; format: functional; details: KCTC-1916, 24 h
attribute.measured: MIC (µg/mL)

Worked examples, 6 molecules total:
* CC(=O)c1c2c(c3ccccc3c1O)O[C@H]1OCC[C@@H]21 (relative stereo) | 8
* CCO[C@@H]1Oc2c(c(C(C)=O)c(O)c3ccccc23)[C@@H]1C (relative stereo) | 0.5
* COc1ccc(C2Cc3c(C(C)=O)c(O)c4ccccc4c3O2)cc1 (stereo not given) | 32
* CCOC1Cc2c(C(C)=O)c(O)c3ccccc3c2O1 (stereo not given) | 0.5
* CC(=O)c1c2c(c3ccccc3c1O)OC(C)(c1ccccc1)C2 (stereo not given) | 32
* CC(=O)c1c2c(c3ccccc3c1O)O[C@H]1OCCC[C@@H]21 (relative stereo) | 0.5

[I] CC(=O)c1c2c(c3ccccc3c1O)OC(OCC(C)C)C2 (stereo not given)
[II] COC1(C)Cc2c(C(C)=O)c(O)c3ccccc3c2O1 (stereo not given)
[III] CCCCOC1Cc2c(C(C)=O)c(O)c3ccccc3c2O1 (stereo not given)
Lookup: List by increasing MIC. Submit the labels in the order that the ranking request calls for.
Found: II, III, I

----------
// values below are reported pIC50
Biological target: Tyrosinase (Agaricus bisporus, UniProt O42713)
Sequence (O42713 whole entry): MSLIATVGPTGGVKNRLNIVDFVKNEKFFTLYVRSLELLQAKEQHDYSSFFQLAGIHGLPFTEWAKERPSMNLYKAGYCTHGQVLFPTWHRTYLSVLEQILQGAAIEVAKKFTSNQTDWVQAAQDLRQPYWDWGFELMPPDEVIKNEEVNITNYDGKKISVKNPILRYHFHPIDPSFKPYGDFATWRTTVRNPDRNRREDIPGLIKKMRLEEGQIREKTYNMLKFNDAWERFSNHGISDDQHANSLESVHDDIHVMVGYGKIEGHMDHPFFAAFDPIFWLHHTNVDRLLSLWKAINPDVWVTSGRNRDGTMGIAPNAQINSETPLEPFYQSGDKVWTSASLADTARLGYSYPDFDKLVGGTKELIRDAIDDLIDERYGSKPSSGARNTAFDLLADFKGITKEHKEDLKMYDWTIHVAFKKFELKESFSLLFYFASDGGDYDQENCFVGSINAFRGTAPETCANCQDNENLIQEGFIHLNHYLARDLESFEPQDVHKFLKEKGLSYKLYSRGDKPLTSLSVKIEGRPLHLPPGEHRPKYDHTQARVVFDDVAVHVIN
pIC50: −log10 of the molar value.

Worked examples, 4 compounds total:
• CC(=O)c1c2c(c3ccccc3c1O)OC(OCC(C)C)C2 (stereo not given) = 3.70
• CC(=O)c1c2c(c3ccccc3c1O)O[C@H]1OCC[C@@H]21 (relative stereo) = < 3.43
• CC(=O)c1c2c(c3ccccc3c1O)OC(C)(c1ccccc1)C2 (stereo not given) = < 3.50
• COC1(C)Cc2c(C(C)=O)c(O)c3ccccc3c2O1 (stereo not given) = < 3.44

Now for another entry.
Lookup: # value lookup — system Tyrosinase (Agaricus bisporus, UniProt O42713), readout pIC50, item COc1ccc(C2Cc3c(C(C)=O)c(O)c4ccccc4c3O2)cc1 (stereo not given)
Found: < 3.52

----------
attribute.measured: IC50 (µg/mL)

- CCO[C@@H]1Oc2c(c(C(C)=O)c(O)c3ccccc23)[C@@H]1C (relative stereo): 62.51
- CCOC1Cc2c(C(C)=O)c(O)c3ccccc3c2O1 (stereo unspecified): 25.11
- CC(=O)c1c2c(c3ccccc3c1O)OC(C)(c1ccccc1)C2 (stereo unspecified): 77.62
- CCCCOC1Cc2c(C(C)=O)c(O)c3ccccc3c2O1 (stereo unspecified): 5.01
- CCCOC1Cc2c(C(C)=O)c(O)c3ccccc3c2O1 (stereo unspecified): 3.33

[P] COC1(C)Cc2c(C(C)=O)c(O)c3ccccc3c2O1 (stereo unspecified)
[Q] CC(=O)c1c2c(c3ccccc3c1O)OC(OCC(C)C)C2 (stereo unspecified)
Lookup: When the recorded IC50 values are compared, which is smaller: that of P or that of Q ? Answer = label.
Found: Q
(Q: 6.3 µg/mL, P: 31.47 µg/mL)
